# tested target: UniProt P48067
# Sequence (P48067 whole entry): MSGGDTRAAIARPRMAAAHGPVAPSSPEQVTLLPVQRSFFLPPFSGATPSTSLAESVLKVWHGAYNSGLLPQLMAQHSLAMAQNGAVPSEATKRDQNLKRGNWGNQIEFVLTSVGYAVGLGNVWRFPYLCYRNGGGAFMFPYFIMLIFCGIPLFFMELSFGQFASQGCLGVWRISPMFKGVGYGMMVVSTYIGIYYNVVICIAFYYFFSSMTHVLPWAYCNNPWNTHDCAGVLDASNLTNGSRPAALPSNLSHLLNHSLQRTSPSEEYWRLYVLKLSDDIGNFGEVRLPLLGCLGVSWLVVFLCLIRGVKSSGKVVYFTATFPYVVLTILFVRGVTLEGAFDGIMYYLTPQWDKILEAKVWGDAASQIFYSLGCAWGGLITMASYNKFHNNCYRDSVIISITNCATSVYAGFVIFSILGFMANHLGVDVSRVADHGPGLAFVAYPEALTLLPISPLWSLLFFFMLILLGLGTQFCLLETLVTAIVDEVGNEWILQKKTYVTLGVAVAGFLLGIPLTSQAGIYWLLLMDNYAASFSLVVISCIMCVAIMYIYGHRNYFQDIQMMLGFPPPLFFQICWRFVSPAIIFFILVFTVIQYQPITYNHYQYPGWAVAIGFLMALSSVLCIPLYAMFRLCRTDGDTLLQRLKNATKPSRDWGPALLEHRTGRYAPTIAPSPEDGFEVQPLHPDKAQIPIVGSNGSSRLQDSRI
# experiment description: Radioligand binding assay using recombinant CHO cell membranes expressing human GlyT1
# measurement parameters: read-out: radioligand binding Kiapp
Structures can show the parent of a compound that is named as a salt.
Below: a set of entries, each annotated with reported Ki.

compound | Ki
CC1CN(C2Cc3cc(F)c(OCCNS(=O)(=O)c4cn(C)cn4)cc3C2Cc2ccccc2)C1 (stereo not drawn) | ≤ 100 nM
CN[C@@H]1Cc2cc(F)c(CNS(=O)(=O)c3cn(C)cn3)cc2[C@H]1Cc1ccccc1 (relative stereo) [Example 209b] | ≤ 10 nM
Cn1cnc(S(=O)(=O)NCCOc2ccc3c(c2)C(Cc2ccccc2)C(N)C3)c1 (stereo not drawn) [Example 197, hydrochloride] | ≤ 100 nM
CN(CCOc1cc2c(cc1F)CC(N1CC(C)(O)C1)C2Cc1ccccc1)S(=O)(=O)c1cn(C)cn1 (stereo not drawn) | ≤ 1000 nM
CN[C@@H]1Cc2cc(F)c(CNS(=O)(=O)c3cn(C)cn3)cc2[C@@H]1Cc1ccccc1 (relative stereo) [Example 209a] | ≤ 10 nM
CCOC(=O)NC1Cc2ccc(OCCNS(=O)(=O)c3cn(C)cn3)cc2C1Cc1ccccc1 (stereo not drawn) | ≤ 1000 nM
Cn1cnc(S(=O)(=O)NCCOc2cc3c(cc2F)C[C@@H](N2CCC2)[C@H]3Cc2ccccc2)c1 (relative stereo) | ≤ 100 nM
CCOC(=O)NC1Cc2ccc(OCCNS(=O)(=O)c3nccn3C)cc2C1Cc1ccccc1 (stereo not drawn) | ≤ 10000 nM
Cn1cnc(S(=O)(=O)NCCOc2ccc3c(c2)C(Cc2ccccc2)C(N2CC(C)(C)C2)C3)c1 (stereo not drawn) | ≤ 100 nM
Cn1ccnc1S(=O)(=O)NCCOc1ccc2c(c1)C(Cc1ccccc1)C(N)C2 (stereo not drawn) [Example 198, hydrochloride] | ≤ 10000 nM
Cn1cnc(S(=O)(=O)NCCOc2ccc3c(c2)C(Cc2ccccc2)C(N2CCC2)C3)c1 (stereo not drawn) | ≤ 10 nM
CNC1Cc2ccc(OCCNS(=O)(=O)c3cn(C)cn3)cc2C1Cc1ccccc1 (stereo not drawn) | ≤ 10 nM
CC1CN(C2Cc3ccc(OCCNS(=O)(=O)c4cn(C)cn4)cc3C2Cc2ccccc2)C1 (stereo not drawn) | ≤ 100 nM
Cn1cnc(S(=O)(=O)NCCOc2cc3c(cc2F)C[C@@H](N2CC(C)(O)C2)[C@H]3Cc2ccccc2)c1 (relative stereo) | ≤ 100 nM
CN[C@@H]1Cc2cc(F)c(OCCNS(=O)(=O)c3cn(C)cn3)cc2[C@@H]1Cc1ccccc1 (relative stereo) | ≤ 100 nM
